# TARGET_SYSTEM: Urease (Canavalia ensiformis)
# Sequence (P07374 whole entry): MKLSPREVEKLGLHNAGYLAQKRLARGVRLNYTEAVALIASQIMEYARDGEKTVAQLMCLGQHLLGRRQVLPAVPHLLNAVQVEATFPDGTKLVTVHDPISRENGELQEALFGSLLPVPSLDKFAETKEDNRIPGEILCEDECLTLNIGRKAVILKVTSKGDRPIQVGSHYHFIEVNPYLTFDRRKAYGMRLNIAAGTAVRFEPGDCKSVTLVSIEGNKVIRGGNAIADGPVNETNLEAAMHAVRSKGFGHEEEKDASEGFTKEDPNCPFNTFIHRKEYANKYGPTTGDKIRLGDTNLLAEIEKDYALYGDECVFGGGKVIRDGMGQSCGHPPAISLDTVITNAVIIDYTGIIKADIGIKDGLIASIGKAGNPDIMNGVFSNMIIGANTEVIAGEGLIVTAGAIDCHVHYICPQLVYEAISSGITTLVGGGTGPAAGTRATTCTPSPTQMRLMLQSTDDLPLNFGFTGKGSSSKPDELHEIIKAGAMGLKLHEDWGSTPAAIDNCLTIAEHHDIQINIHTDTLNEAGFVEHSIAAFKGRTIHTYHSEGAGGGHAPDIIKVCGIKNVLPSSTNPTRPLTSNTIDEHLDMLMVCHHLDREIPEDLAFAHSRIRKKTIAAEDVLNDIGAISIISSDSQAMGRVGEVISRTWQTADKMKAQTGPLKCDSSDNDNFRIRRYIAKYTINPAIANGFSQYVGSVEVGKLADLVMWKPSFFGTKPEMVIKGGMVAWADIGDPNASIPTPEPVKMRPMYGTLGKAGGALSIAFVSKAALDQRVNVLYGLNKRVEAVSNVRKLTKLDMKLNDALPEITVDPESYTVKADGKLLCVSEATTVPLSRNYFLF
VALUE_TYPE: IC50 (µM)
// note: answer is a bare numeric in µM

QUERY: Lab note: need IC50 for `O=C1Nc2ccccc2/C1=N/NC(=S)Nc1c(Cl)cc(Cl)cc1Cl` on Urease (Canavalia ensiformis), anyone have it?
RESULT: 28.6
